# Test system: Candida albicans
# test method notes: Antimicrobial activity against Candida albicans after 48 hrs by serial two-fold microbroth dilution method
# Format: functional
measured endpoint: MIC

Exercise: Request - read-out MIC | tested on Candida albicans | compound CC1(C)[C@H]2Cc3c(nc(N)c(C#N)c3-c3cccc(Br)c3)[C@@H]1C2
Solution: 125 µg/mL

Exercise: Please tell me: MIC of COc1cccc(-c2c(C#N)c(N)nc3c2C[C@H]2C[C@@H]3C2(C)C)c1 , system Candida albicans?
Solution: 125 µg/mL

Exercise: Value wanted: MIC (Candida albicans) of entry CC1(C)[C@H]2Cc3c(nc(N)c(C#N)c3-c3ccccc3Cl)[C@@H]1C2
Solution: 125 µg/mL

Exercise: Lab note: need MIC for COc1ccccc1-c1c(C#N)c(N)nc2c1C[C@H]1C[C@@H]2C1(C)C on Candida albicans, anyone have it?
Solution: 125 µg/mL

Exercise: Provide value of MIC for this record tested with Candida albicans: Cc1ccc(-c2c(C#N)c(O)nc3c2C[C@H]2C[C@@H]3C2(C)C)cc1
Solution: 125 µg/mL

Exercise: Find the measured MIC: item CC1(C)[C@H]2CCC(=O)[C@@H]1C2 , target or system Candida albicans.
Solution: > 125 µg/mL
